- System: RPMI-8226
- ASSAY_REMARKS: NCI tumour cell line growth inhibition, 48 h
Calls of active or inactive are those of the source. Rule as the data show it: active = GI50 up to about 1.1 µM and inactive = higher.
Outcomes: y (active), n (inactive)

| COMPOUND | CATEGORY |
| --- | --- |
| Cc1cccc(C)c1NC(=O)CCC(=O)CC(=O)C(C)C | n |
| COc1cccc(CC(=O)N2CCN(CCCc3ccccc3)CC2)c1 | n |
| CN(CCN)[C@H](CSSC[C@@H](c1ccccc1O)N(C)CCN)c1ccccc1O | n |
| O=C1c2ccccc2-n2c1nc1ccc([N+](=O)[O-])cc1c2=O | n |
| CCCCCCCCCCC1OC([C@@H](O)CC[C@H](O)C2CC[C@@H](CCCCCCCC(O)CC3=CC(C)OC3=O)O2)CCC1O (stereo partly drawn) | n |
| CCN1C(=O)CS/C1=N\NC(=O)CSc1nc2ccccc2c(=O)n1CC | n |
| C/C1=C/C(C)CC(C)OC(=O)C(C)NC(=O)C(Cc2ccc(O)c(I)c2)N(C)C(=O)CNC(=O)C(C)C1 (stereo not drawn) | y |
| C=C(COCO)C(C)=O | n |
| COC(=O)C(CC(C)C)NC(=O)NC12CC3CC(CC(F)(C3)C1)C2 (stereo not drawn) | n |
| O=CC1OC(=O)c2cc(O)c(O)c(O)c2-c2c(cc(O)c(O)c2O)C(=O)OC1C(O)C(O)CO (stereo not drawn) | n |
| COc1ccc2[nH]c3c4c(c5cc(C(C)(C)C)ccc5c3c2c1)C(=O)N(c1ccccc1)C4=O | n |
| O=c1c2c3c(sc2nc2n1NC=NN2)CCCC3 | n |
| COc1cc(C(=O)C/C(CCC(=O)Nc2ccc(Cl)cc2Cl)=N/NC(=O)C(N)=O)ccc1O | n |
| NCCNc1ccc(NCCN)c2c1C(=O)c1c(O)ccc(O)c1C2=O | y |
| Cc1c(C)n(-c2ccccc2)c2nc(S(C)(=O)=O)nc(S(C)(=O)=O)c12 | n |
| Cn1c(C(C#N)c2cc(Cl)ncn2)nc2ccccc21 (stereo not drawn) | n |
| O=c1[nH]c(=O)n([C@@H]2C[C@H](CO)[C@H](O)C2)cc1/C=C/Br | n |
| C=CCc1[nH]c2c(OCc3ccccc3)cc(N(CC=C)C(C)=O)cc2c1C | n |
| C/C1=C\CC/C(C)=C/C=C(/C(C)C)CC/C(C(=O)O)=C/CC1 | n |
| COc1ccc(CCCNC(=O)c2cc(OC)c(OC)cc2CCO)cc1OC | n |
| COc1cccc(OC)c1/C=C1\OC(=O)c2cccc(OC)c21 | n |
| C[N+](C)(C)CC(=O)N/N=C(\CCC(=O)NCCc1ccccc1)CC(=O)c1ccccc1 | n |
| C=CC(O)(CBr)CCC(Br)C(=C)C (stereo not drawn) | n |
| COc1ccc(-c2cc(-c3ccc(Nc4ccnc5cc(Cl)ccc45)cc3)nc(N)c2C#N)cc1 | n |
| CC1(C)OC(=O)N(c2ccccc2)C12C=Cc1cccc([N+](=O)[O-])c1O2 (stereo not drawn) | n |
| CC(C)c1cccc(C(C)C)c1NC(=S)Nc1ccccc1 | n |
| O=C(O)/C(O)=C\C(=O)c1ccc(Br)cc1 | n |
| COC(=O)C(Cc1nc2ccc(Cl)cc2nc1O)/C(=N/O)C(=O)Nc1cccc(Cl)c1C (stereo not drawn) | n |
| O=S(=O)(CF)OCCCCOS(=O)(=O)CF | n |
| COc1ccc(C(C2=C(O)CC(C)OC2=O)C2=C(O)CC(C)OC2=O)cc1 (stereo not drawn) | n |
| CCOC(=O)C1=C(C)NC(C)=C(C(=O)OCC)C1c1ccc(C)cc1 | n |
| O=C(O)CSc1ccc([N+](=O)[O-])cc1[N+](=O)[O-] | n |
| CCNC(=O)COc1ccc(Cl)cc1Cl | n |
| CN(C)CCCCCNc1c2ccccc2nc2cccc([N+](=O)[O-])c12 | y |
| O=C(O)CNc1c2ccccc2nc2ccccc12 | n |
| NC(=S)N/N=C/c1cn(CCCl)c2ccccc12 | n |
| CC1C2CC(C(S(=O)(=O)N3CCOCC3)/C2=N\O)C1(C)C (stereo not drawn) | n |
| O=C(CSc1nnc(Cc2ccccc2)o1)Nc1cccc([N+](=O)[O-])c1 | n |
| Cc1ccc(NC(=O)NC23CC4CC(CC(F)(C4)C2)C3)cc1 | n |
| CC(=O)OCC1OC(N2C(=O)C(=O)c3ccccc32)C(OC(C)=O)C(OC(C)=O)C1OC(C)=O (stereo not drawn) | n |
| O=c1[nH]c(NCc2ccncc2)nc2[nH]cnc12 | n |
| Cc1ccccc1NC(=O)C(=O)CC(=O)c1ccc([N+](=O)[O-])cc1 | n |
| CC(C)(C)OC(=O)N1CCCC1=O | n |
